# TESTED_SYSTEM: melanocortin 1 receptor (MC1R) (UniProt Q01726)
# Sequence (Q01726 whole entry): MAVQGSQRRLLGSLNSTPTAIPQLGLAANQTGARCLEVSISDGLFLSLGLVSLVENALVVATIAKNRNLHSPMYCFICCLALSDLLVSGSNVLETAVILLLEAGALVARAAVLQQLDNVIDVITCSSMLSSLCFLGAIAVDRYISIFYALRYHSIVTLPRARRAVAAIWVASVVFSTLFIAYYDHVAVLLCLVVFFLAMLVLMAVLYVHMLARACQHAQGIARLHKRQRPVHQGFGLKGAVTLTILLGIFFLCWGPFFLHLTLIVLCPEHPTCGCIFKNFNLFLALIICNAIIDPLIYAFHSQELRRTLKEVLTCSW
# PROCEDURE_TEXT: 125I-NDP-MSH competition, HEK293 membranes
[ ]: non-standard residue; d: D form.
PROPERTY: pKi
Would you please state pKi, meaning minus log10 of the concentration in mol/L, as a bare number?

Recorded pKi, per entry:
BINDER	pKi
VPKGWHFHEMSYS (N-terminal acetyl (Ac); C-terminal amide; D-isomers at all residues except Gly 4) [peptide 865]	5.64
Ac-[dV][dP][dK]G[dW][dR]F[dH][dS][dI][dI][dS][dS]-NH2 (SMILES CC[C@@H](C)[C@@H](NC(=O)[C@@H](CO)NC(=O)[C@@H](Cc1c[nH]cn1)NC(=O)[C@H](Cc1ccccc1)NC(=O)[C@@H](CCCNC(=N)N)NC(=O)[C@@H](Cc1c[nH]c2ccccc12)NC(=O)CNC(=O)[C@@H](CCCCN)NC(=O)[C@H]1CCCN1C(=O)[C@H](NC(C)=O)C(C)C)C(=O)N[C@@H](C(=O)N[C@H](CO)C(=O)N[C@H](CO)C(N)=O)[C@H](C)CC) [peptide 880]	8.74
VPKGXRFHEMSYS (N-terminal acetyl (Ac); C-terminal amide; 5-methoxy-D-Trp at 5; D-isomers at all residues except Gly 4) [peptide 861]	7.12

Moving on to the next binder.
stdin: Sample VPKGXRFHEMSYS (N-terminal acetyl (Ac); C-terminal amide; 5-hydroxy-D-Trp at 5; D-isomers at all residues except Gly 4) [peptide 860] — what was its pKi?
stdout: 7.02
